All figures here come from patent US8563717B2.

Test system: Interferon-α
Experiment: Induction of Interferon-α using fresh human PBMCs
Format: cell-based
Settings: PBMC, 24 hr incubation, relative to 2 μM resiquimod control, read-out: mean pEC50 for induction of IFN-α (converted)
quantityKind: EC50

Q: # returns recorded EC50 (system: Interferon-α) for CCCCOc1nc(N)c2[nH]c(=O)n(CCCCCC3CCNCC3)c2n1
A: < 0.316 nM

Q: // query: CCCCOc1nc(N)c2[nH]c(=O)n(CCCC3CCN(CCCC)CC3)c2n1
A: < 1 nM

Q: Here is the next compound: CCCCOc1nc(N)c2[nH]c(=O)n(CCCC3CCN(CCC)CC3)c2n1
A: < 1 nM

Q: Would you kindly repeat that for CCCCOc1nc(N)c2[nH]c(=O)n(CCCCC3CCN(CC)CC3)c2n1 ?
A: < 10 nM

Q: Next up: CCC[C@H](C)Oc1nc(N)c2[nH]c(=O)n(CCC3CCN(CC)CC3)c2n1
A: < 0.316 nM

Q: What do we get for CCC[C@H](C)Oc1nc(N)c2[nH]c(=O)n(CCC3CCCN(C(C)C)C3)c2n1 (stereo partly drawn) ?
A: < 0.316 nM

Q: Then this compound: CCC[C@H](C)Oc1nc(N)c2[nH]c(=O)n(CCCCC3CCCN(CC)C3)c2n1 (stereo partly drawn)
A: < 0.316 nM

Q: Likewise for CCCCOc1nc(N)c2[nH]c(=O)n(CCC3CCCN(C4CCCCC4)C3)c2n1 (stereo not drawn) ?
A: < 1 nM

Q: Similarly, CCCCOc1nc(N)c2[nH]c(=O)n(CCCCCC3CCCN(C(C)C)C3)c2n1 (stereo not drawn) ?
A: < 10 nM

Q: Another compound to check: CCCCOc1nc(N)c2[nH]c(=O)n(CCCC3CCN(CC)CC3)c2n1
A: < 10 nM

Q: What do you get for CC(C)Oc1nc(N)c2[nH]c(=O)n(CCCCC3CCNCC3)c2n1 ?
A: < 100 nM

Q: Another: CCCCOc1nc(N)c2[nH]c(=O)n(CC3CCCN(CCC)C3)c2n1 (stereo not drawn)
A: < 100 nM

Q: Check CCC[C@H](C)Oc1nc(N)c2[nH]c(=O)n(CCCC3CCN(C(C)C)CC3)c2n1 too.
A: < 0.316 nM

Q: Here is the next compound: CCCCOc1nc(N)c2[nH]c(=O)n(CCC3CCCNC3)c2n1 (stereo not drawn)
A: < 100 nM

Q: Consider next the compound CCCCOc1nc(N)c2[nH]c(=O)n(CCC3CCN(C(C)C)CC3)c2n1 in the same way.
A: < 100 nM

Q: # repeat for CCCCOc1nc(N)c2[nH]c(=O)n(CCCC3CCN(C(C)C)CC3)c2n1
A: < 10 nM

Q: Continue with CCC[C@H](C)Oc1nc(N)c2[nH]c(=O)n(CCCCC3CCN(CC)CC3)c2n1
A: < 0.316 nM

Q: Same thing, different compound: CCCCOc1nc(N)c2[nH]c(=O)n(CCC3CCN(CC)CC3)c2n1
A: < 100 nM

* * *

Kindly state EC50 for each of the entries shown.
Tested on: TNF-α
Assay: Induction of TNF-α using fresh human PBMCs
Assay type: cell-based
Conditions: PBMC, 24 hr incubation, relative to 2 μM resiquimod control, read-out: mean pEC50 for induction of TNF-α (converted)

Q: Field: EC50 (TNF-α). Entry: CCCCOc1nc(N)c2[nH]c(=O)n(CCC3CCCN(C4CCCCC4)C3)c2n1 (centres unmarked) [Example 38]
A: > 1000 nM

Q: How about this molecule: CCCCOc1nc(N)c2[nH]c(=O)n(CCCC3CCN(CC)CC3)c2n1 [Example 9]
A: > 1000 nM

Q: Same question for CCCCOc1nc(N)c2[nH]c(=O)n(CCC3CCCNC3)c2n1 (centres unmarked) [Example 29] please.
A: > 1000 nM

Q: CCCCOc1nc(N)c2[nH]c(=O)n(CCCCC3CCN(CCC)CC3)c2n1 [Example 108] , same question.
A: > 1000 nM

Q: Input CCC[C@H](C)Oc1nc(N)c2[nH]c(=O)n(CCCCC3CCN(CC)CC3)c2n1 [Example 119]
A: > 31.6 nM

* * *

Test system: Interferon-α
Experiment: Induction of Interferon-α using cryopreserved human PBMCs
Assay type: cell-based
Details: PBMC, 24 h incubation, normalised to 1 uM resiquimod, read-out: mean pEC50 for induction of IFN-α (converted)
quantityKind: EC50

Q: Which measured EC50 value corresponds to CCCCOc1nc(N)c2[nH]c(=O)n(CCCC3CCCCN3)c2n1 (centres unmarked) [Example 13] ?
A: < 1.58 µM

Q: Same question, CCCCOc1nc(N)c2[nH]c(=O)n(CCCCCC3CCN(CC)CC3)c2n1 [Example 123] this time
A: < 1.58 µM

Q: Similarly, CCCCOc1nc(N)c2[nH]c(=O)n(CCCC3CCN(C(C)C)CC3)c2n1 [Example 95] ?
A: < 1.58 µM

Q: And then CCCCOc1nc(N)c2[nH]c(=O)n(CC3CCN(CCC)CC3)c2n1 [Example 70] , what is it?
A: < 1.58 µM

Q: What do we get for CCCCOc1nc(N)c2[nH]c(=O)n(CCCCC3CCCN(CCCC)C3)c2n1 (centres unmarked) [Example 59] ?
A: < 1.58 µM

Q: Now give it for CCCCOc1nc(N)c2[nH]c(=O)n(CCC3CCCN(C4CCCC4)C3)c2n1 (centres unmarked) [Example 36] too.
A: < 1.58 µM

Q: Consider next the molecule CCCCOc1nc(N)c2[nH]c(=O)n(CCCC3CCN(CCC)CC3)c2n1 [Example 94] in the same way.
A: < 1.58 µM

Q: Try CCCCOc1nc(N)c2[nH]c(=O)n(CCCCC3CCN(CCC)CC3)c2n1 [Example 108] next.
A: < 1.58 µM

Q: What about CCCCOc1nc(N)c2[nH]c(=O)n(CCCCCC3CCCN(CC)C3)c2n1 (centres unmarked) [Example 68] ?
A: < 1.58 µM

Q: Let us now turn to CCCCOc1nc(N)c2[nH]c(=O)n(CCCCC3CCN(CC(C)C)CC3)c2n1 [Example 111]
A: < 1.58 µM

Q: Now consider CCCCOc1nc(N)c2[nH]c(=O)n(CCC3CCCN(C4CCCCC4)C3)c2n1 (centres unmarked) [Example 38] and answer again.
A: < 1.58 µM

Q: Can you handle CCCCOc1nc(N)c2[nH]c(=O)n(CCCC3CCNCC3)c2n1 [Example 93] next?
A: < 1.58 µM

Q: Next record, please: CCCCOc1nc(N)c2[nH]c(=O)n(CCCC3CCCCN3C3CCCC3)c2n1 (centres unmarked) [Example 20]
A: < 1.58 µM

Q: Record: CCCCOc1nc(N)c2[nH]c(=O)n(CCCCC3CCN(C4CCCCC4)CC3)c2n1 [Example 116]
A: < 1.58 µM

Q: Try this molecule next: CCC[C@H](C)Oc1nc(N)c2[nH]c(=O)n(CCCC3CCCN(CC)C3)c2n1 (some centres unmarked) [Example 54]
A: < 1.58 µM

Q: // query: CCCCOc1nc(N)c2[nH]c(=O)n(CCCCC3CCCN(C4CCCC4)C3)c2n1 (centres unmarked) [Example 62]
A: < 1.58 µM

Q: Please give the result for CCCCOc1nc(N)c2[nH]c(=O)n(CCC3CCN(CCC)CC3)c2n1 [Example 80] too.
A: < 1.58 µM
